Below are IC50 values for Ribosomal protein S6 kinase alpha-3 (Homo sapiens) collected from several publications.

| compound | IC50 |
| --- | --- |
| COc1ccc(N2C(=O)[C@@H](C)N(C3CCCCC3)c3nc(Nc4cc(F)c5[nH]ncc5c4)ncc32)cc1OC | ≤ 100 nM |
| CO[C@H]1CC[C@H](N2c3nc(Nc4cc(F)c5[nH]ncc5c4)ncc3N(c3cccc(C#N)c3)C(=O)[C@H]2C)CC1 | ≤ 100 nM |
| C[C@@H]1C(=O)N(c2ccc(N3CCC(O)CC3)nc2)c2cnc(Nc3cc(F)c4[nH]ncc4c3)nc2N1C1CCCCC1 | ≤ 100 nM |
| C[C@@H]1CNC(=O)c2cc3ccc(C(=O)Nc4cnn(Cc5ccccc5N)c4)nc3n21 | 14 nM |
| Cn1cc(NC(=O)c2ccc3cc4n(c3c2)CC(C)(C)CNC4=O)cn1 | 335 nM |

Lab note: each compound below needs its IC50 filled in.
1. Cc1cc(NC(=O)c2ccc3cc4n(c3n2)C(C)CCNC4=O)no1 (stereo not drawn)
2. CNC(=O)c1ccccc1NC(=O)c1ccc2cc3n(c2c1)CCCNC3=O
3. COc1cc(N2C(=O)[C@@H](C)N(C3CCCCC3)c3nc(Nc4ccc5[nH]ncc5c4)ncc32)ccc1C
4. Cc1cc(NC(=O)c2ccc3cc4n(c3c2)CCCNC4=O)n[nH]1
5. O=C(Nc1cnn(-c2ccccc2)c1)c1ccc2cc3n(c2c1)CCCNC3=O
6. Cn1c(NC(=O)c2ccc3cc4n(c3n2)CC(C)(C)CNC4=O)nc2ccccc21
7. C[C@@H]1C(=O)N(c2cccc(C#N)c2)c2cnc(Nc3ccc4[nH]nc(C#N)c4c3)nc2N1C1CCCCC1

### Response
1. 5.2 nM
2. 154 nM
3. ≤ 100 nM
4. 68 nM
5. 18 nM
6. 2500 nM
7. 100 to 1000 nM

I would be grateful if you could provide IC50 for each of the following entries.
1. C[C@@H]1NC(=O)c2cc3ccc(C(=O)Nc4cc(Cc5ccccc5)on4)nc3n2[C@H]1C (relative stereo)
2. C[C@@H]1C(=O)N(c2cccc(C#N)c2)c2cnc(Nc3ccc(N)c(C(F)(F)F)c3)nc2N1C1CCC(F)(F)CC1
3. C[C@H]1NC(=O)c2cc3ccc(C(=O)Nc4nc5ccccc5n4CCCN(C)C)cc3n2[C@H]1C

### Response
1: 57 nM; 2: > 1000 nM; 3: 13.7 nM

* * *

Listing of IC50 toward Ribosomal protein S6 kinase alpha-3 (Homo sapiens, UniProt P51812), each taken from a published source.
Give bare numbers, in nM.

Provide the reported IC50 of each entry below, same order.
1. CCn1c(NC(=O)c2ccc3cc4n(c3n2)[C@@H](C)[C@H](C)NC4=O)nc2ccccc21 (relative stereo)
2. O=C(Nc1cccnc1)c1ccc2cc3n(c2c1)CC(F)(F)CNC3=O
3. C[C@@H]1CNC(=O)c2cc3ccc(NC(=O)c4cnn(Cc5ccccc5)c4)cc3n21

### Response
1: 1110; 2: 1700; 3: 1380

* * *

Reported pIC50 against Ribosomal protein S6 kinase alpha-3 (Homo sapiens), gathered from multiple publications, appears below.
Answers are plain numbers, as −log10 of the molar value.

| compound | pIC50 |
| --- | --- |
| O=C(Nc1cccnc1)c1ccc2cc3n(c2c1)CC1(CC1)CNC3=O | 6.37 |
| Cc1nc(-c2cccc(NC(=O)c3ccc4cc5n(c4n3)CCCNC5=O)c2)cs1 | 7.25 |
| CC1CCNC(=O)c2cc3ccc(C(=O)Nc4nc5ccccc5[nH]4)cc3n21 (centres unmarked) | 9.11 |

Turning to the following compound.
### Prompt Identify the reported pIC50 for the following entry. CC1(C)c2cnc(Nc3ccccc3)nc2CN1C(=O)NCC1CCN(Cc2ccccc2)C1 (centres unmarked)
### Response 5.25
